Values compiled from ChEMBL document CHEMBL1129832.

Record: pIC50 reported on Serine protease 1 (Homo sapiens, UniProt P07477).
Sequence (P07477 whole entry): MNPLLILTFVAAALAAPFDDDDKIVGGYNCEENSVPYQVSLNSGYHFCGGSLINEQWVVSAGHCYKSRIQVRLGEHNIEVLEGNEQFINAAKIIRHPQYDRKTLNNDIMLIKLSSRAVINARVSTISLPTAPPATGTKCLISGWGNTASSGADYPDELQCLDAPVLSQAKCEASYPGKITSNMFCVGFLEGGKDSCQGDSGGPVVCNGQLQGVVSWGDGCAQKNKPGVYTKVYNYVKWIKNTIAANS
Numbers only, as −log10 of the molar value.

Solved entries (count: 2):
[[record]]
molecule = "CCCC(CCC)C(=O)N[C@@H](CC(=O)OC)C(=O)N1CCCC1C(=O)N[C@H]1CCCN(C(=N)N)C1O (stereo partly drawn)"
val = 8.87

[[record]]
molecule = "N=C(N)N1CCC[C@H](NC(=O)C2CS[C@H]3CC[C@H](NS(=O)(=O)Cc4ccccc4)C(=O)N23)C1O (stereo partly drawn)"
val = 7.94


query: Supply pIC50 value. Item: COC(=O)C[C@H](NS(=O)(=O)Cc1ccccc1)C(=O)N1CCCC1C(=O)N[C@H]1CCCN(C(=N)N)C1O (stereo partly drawn)
result: 8.59
